Plant response rating, Corn listing for selected molecules.
Test system: corn
assay_remarks: Test B pre-/postemergence herbicide test
Type: in vivo, Zea mays
condition_parameters: Postemergence, 500 g ai/ha; visual rating after 13 to 15 days, scale 0 (no effect) to 100 (complete control)

| molecule | study_system | Plant response rating, Corn |
| --- | --- | --- |
| CCCCn1nc(C(C)(C)C)cc1C(=O)Nc1cccc(C(C)=NO)c1 [Compound 119] | corn | 30 |
| CCOC(=O)c1cccc(NC(=O)c2cc(C(C)(C)C)nn2CC)c1OC [Compound 97] | corn | 0 |
| CCn1nc(C(C)(C)C)cc1C(=O)Nc1cccc(C(=O)OC(C)(C)C)c1 [Compound 98] | corn | 10 |
| CCOC(=O)c1cc(NC(=O)c2cc(C(C)(C)C)nn2CC)ccc1OC [Compound 96] | corn | 20 |
| CCN(C)C(=O)c1cccc(NC(=O)c2cc(C(C)(C)C)nn2CC)c1 [Compound 48] | corn | 30 |
| CCNC(=O)c1cc(NC(=O)c2cc(C(C)(C)C)nn2CC)ccc1F [Compound 58] | corn | 20 |
| CCn1nc(C(C)(C)C)cc1C(=O)Nc1cccc(C(=O)OCC(F)(F)F)c1 [Compound 83] | corn | 30 |

* * *

Tested on: goosegrass
assay_remarks: Test C pre-/postemergence herbicide test
Type: in vivo, Eleusine indica
condition_parameters: 62 g ai/ha; preemergence; scale 0 to 100
Plant response rating, Goosegrass listing for selected compounds.
parameter: Plant response rating, Goosegrass

| molecule_smiles | parameter | reported_value |
| --- | --- | --- |
| CCNC(=O)c1cccc(NC(=O)c2sc(C(C)(C)C)nc2C)c1 | Plant response rating, Goosegrass | 20 |
| CCc1nn(C(C)(C)C)cc1C(=O)Nc1cc(C(=O)N(C)C)ccn1 | Plant response rating, Goosegrass | 65 |
| C=CCNC(=O)c1cccc(NC(=O)c2nn(C(C)(C)C)nc2CC)c1 | Plant response rating, Goosegrass | 95 |
| CC(=NO)c1cccc(NC(=O)c2sc(C(C)(C)C)nc2C)c1 | Plant response rating, Goosegrass | 100 |
| CCn1nc(C2(C)CC2)cc1C(=O)Nc1cc(C(=O)N(C)C)ccc1F | Plant response rating, Goosegrass | 100 |
| CCOC(=O)c1cccc(NC(=O)c2nn(C(C)(C)CC)nc2CC)c1 | Plant response rating, Goosegrass | 60 |
| CCn1nc(C(C)(C)C)cc1C(=O)Nc1cccc(OC(F)F)c1 | Plant response rating, Goosegrass | 80 |
| CCn1nc(C(C)(C)C)cc1C(=S)Nc1cc(C(=S)N(C)C)ccc1F | Plant response rating, Goosegrass | 80 |

* * *

Tested on: pigweed
assay_remarks: Test B pre-/postemergence herbicide test
Type: in vivo, Amaranthus retroflexus
condition_parameters: postemergence, 500 g ai/ha; scale 0 to 100, 0 is no effect, 100 is complete control
So basically: is Pigweed plant response rating under 70? Then Fulfilled. Not under? Then Not fulfilled.

| compound | study_system | group_label |
| --- | --- | --- |
| CCn1nc(C(C)(C)C)cc1C(=O)Nc1cccc(OC(F)F)c1 [Compound 332] | pigweed | Not fulfilled |
| CCc1nn(C(C)(C)C)nc1C(=O)Nc1cc(C(=O)N(C)C)ccc1F [Compound 361] | pigweed | Fulfilled |
| CCN(C)C(=O)c1cncc(NC(=O)c2cc(C(C)(C)C)nn2CC)c1 [Compound 263] | pigweed | Not fulfilled |
| CCc1nn(C2CCCC2)nc1C(=O)Nc1cccc(C(=O)N2CC=CC2)c1 [Compound 354] | pigweed | Fulfilled |
| CCn1nc(C(C)(C)C)cc1C(=O)Nc1cc(OC)ccc1OC [Compound 297] | pigweed | Fulfilled |
| C=CCN(C)C(=O)c1cccc(NC(=O)c2cc(C(C)(C)C)nn2CC)c1 [Compound 285] | pigweed | Not fulfilled |
| CCn1nc(C(C)(C)C)c(F)c1C(=O)Nc1cccc(C(=O)N(C)C)n1 [Compound 274] | pigweed | Fulfilled |
